Kindly state KD ratio (variant antibody KD/burosumab KD) for each of the entries shown.
Test system: T1, recombinant human FGF23 (R179Q) (human, UniProt Q9GZV9 25-251)
T1 construct: also called rhFGF23(R179Q); hFGF23(R179Q)
T1 sequence (looked up): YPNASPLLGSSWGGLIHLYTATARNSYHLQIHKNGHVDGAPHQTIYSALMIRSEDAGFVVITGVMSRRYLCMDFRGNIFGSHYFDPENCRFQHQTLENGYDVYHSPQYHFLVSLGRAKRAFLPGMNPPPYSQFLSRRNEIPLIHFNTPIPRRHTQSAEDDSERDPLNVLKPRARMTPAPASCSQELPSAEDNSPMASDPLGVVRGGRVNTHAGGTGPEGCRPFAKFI
Measurement description: SPR, antibody captured on hIgG chip, human FGF23 analyte
Give bare numbers.

Go through the list and state KD ratio (variant antibody KD/burosumab KD) for each entry.
1. UGX156 (antibody, human IgG1, kappa, V domains shown, also called HC:I54F; I54F) VH: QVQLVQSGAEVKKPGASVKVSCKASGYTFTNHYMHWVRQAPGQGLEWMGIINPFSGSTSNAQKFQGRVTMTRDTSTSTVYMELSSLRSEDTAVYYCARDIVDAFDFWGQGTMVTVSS VL: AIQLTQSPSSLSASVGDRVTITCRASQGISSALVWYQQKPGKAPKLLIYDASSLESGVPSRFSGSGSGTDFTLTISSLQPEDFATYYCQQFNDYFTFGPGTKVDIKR
2. UGX182 (antibody, human IgG1, kappa, V domains shown, also called HC:S59D, HC:V101I; S59D/V101I) VH: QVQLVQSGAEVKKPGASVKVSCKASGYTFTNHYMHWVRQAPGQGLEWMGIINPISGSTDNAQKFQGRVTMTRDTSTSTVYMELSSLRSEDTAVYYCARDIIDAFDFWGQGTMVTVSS VL: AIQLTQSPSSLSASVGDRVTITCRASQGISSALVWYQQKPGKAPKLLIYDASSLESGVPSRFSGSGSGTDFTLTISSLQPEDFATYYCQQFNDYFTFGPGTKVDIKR
3. UGX145 (antibody, human IgG1, kappa, V domains shown, also called UGX042; LC:Y94E) VH: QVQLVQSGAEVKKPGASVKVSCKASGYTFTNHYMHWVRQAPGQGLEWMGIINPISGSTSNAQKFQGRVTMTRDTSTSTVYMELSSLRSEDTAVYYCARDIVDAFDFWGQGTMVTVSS VL: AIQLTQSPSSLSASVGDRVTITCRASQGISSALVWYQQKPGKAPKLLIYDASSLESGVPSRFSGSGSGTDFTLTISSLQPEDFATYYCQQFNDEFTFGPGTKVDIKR

1: 2; 2: 2; 3: 2

Data provenance is patent US20260250371A1.
